Where do these numbers come from? They come from PubChem BioAssay (EPA / NIEHS).

Read-out: organic anion transporter (SLCO1B1), SLCO1B1 (gene 10599)
Experiment: CLD_SLCO1B1_24hr: CellzDirect (CLD) Gene Expression Assay for organic anion transporter (SLCO1B1) at 24 hours (AID 2283690)
Description: CLD_24hr is a cell-based, multiplexed-readout assay that uses hepatocyte, a human liver primary cell, with measurements taken at 24 hours after chemical dosing in a 96-well plate.CLD_SLCO1B1_24hr is one of 16 assay component(s) measured or calculated from the CLD_24hr assay. […] Furthermore, this assay endpoint can be referred to as a primary readout. […]
Results filed as inconclusive are left out. Activity calls are given as the source filed them. Rule for the calls: active = hit-call score of the fitted dose curve at least 0.9, where 1 is the maximum; inconclusive = response in the unintended direction; inactive = score below 0.9.
experimental_endpoint: outcome

>  <molecule>
C=CC1(C)OC(=O)N(c2cc(Cl)cc(Cl)c2)C1=O (stereo not drawn)

>  <experimental_endpoint>
outcome

>  <measured>
inactive

$$$$
>  <molecule>
Oc1ccccc1-c1ccccc1

>  <experimental_endpoint>
outcome

>  <measured>
inactive

$$$$
>  <molecule>
CC1COC(Cn2cncn2)(c2ccc(Oc3ccc(Cl)cc3)cc2Cl)O1 (stereo not drawn)

>  <experimental_endpoint>
outcome

>  <measured>
inactive

$$$$
